Assignment: determine reported MIC S. pneumo. 1175 for the given compounds.
Tested on: Streptococcus pneumoniae 1175
Format: cell-based
study-conditions: Streptococcus pneumoniae 1175; microtiter broth dilution

**Query** Return reported MIC S. pneumo. 1175; argument: CCC1OC(=O)C(C)C(=O)C(C)C(OC2OC(C)CC(N(C)C)C2O)C(C)(OC)CC(C)C(=O)C(C)C2N(CC3CN(Cc4ccc5ncccc5c4)C3)C(=O)OC12C (stereo not shown)
**Result** <0.06 µg/mL

**Query** Return reported MIC S. pneumo. 1175; argument: CCC1OC(=O)C(C)C(=O)C(C)C(OC2OC(C)CC(N(C)C)C2O)C(C)(OC)CC(C)C(=O)C(C)C2N(CC3CN(Cc4cccc(C#N)c4)C3)C(=O)OC12C (stereo not shown)
**Result** <0.06 µg/mL

**Query** Return reported MIC S. pneumo. 1175; argument: CCC1OC(=O)C(C)C(=O)C(C)C(OC2OC(C)CC(N(C)C)C2O)C(C)(OC)CC(C)C(=O)C(C)C2N(C3CN(S(=O)(=O)c4ccc(-n5ccnc5)c(C#N)c4)C3)C(=O)OC12C (stereo not shown)
**Result** <0.06 µg/mL

**Query** Return reported MIC S. pneumo. 1175; argument: CCC1OC(=O)C(C)C(=O)C(C)C(OC2OC(C)CC(N(C)C)C2O)C(C)(OC)CC(C)C(=O)C(C)C2N(C3CN(C(=O)c4cncc5ccccc45)C3)C(=O)OC12C (stereo not shown)
**Result** 0.25 µg/mL

**Query** Return reported MIC S. pneumo. 1175; argument: CCC1OC(=O)C(C)C(=O)C(C)C(OC2OC(C)CC(N(C)C)C2O)C(C)(OC)CC(C)C(=O)C(C)C2N(C3CN(Cc4ccc5c(c4)CS(=O)(=O)C5)C3)C(=O)OC12C (stereo not shown)
**Result** 0.25 µg/mL

**Query** Return reported MIC S. pneumo. 1175; argument: CCCC(c1ccnc2ccccc12)N1CC(N2C(=O)OC3(C)C(CC)OC(=O)C(C)C(=O)C(C)C(OC4OC(C)CC(N(C)C)C4O)C(C)(OC)CC(C)C(=O)C(C)C23)C1 (stereo not shown) [Example 1.65]
**Result** <0.06 µg/mL

**Query** Return reported MIC S. pneumo. 1175; argument: CCC1OC(=O)C(C)C(=O)C(C)C(OC2OC(C)CC(N(C)C)C2O)C(C)(OC)CC(C)C(=O)C(C)C2N(C3CN(Cc4ccnc5ncsc45)C3)C(=O)OC12C (stereo not shown)
**Result** 0.12 µg/mL

**Query** Return reported MIC S. pneumo. 1175; argument: CCC1OC(=O)C(C)C(=O)C(C)C(OC2OC(C)CC(N(C)C)C2O)C(C)(OC)CC(C)C(=O)C(C)C2N(C3CN(Cc4cccn5nccc45)C3)C(=O)OC12C (stereo not shown)
**Result** <0.063 µg/mL

**Query** Return reported MIC S. pneumo. 1175; argument: `CC[C@H]1OC(=O)[C@H](C)[C@@H](OC(=O)N2CCCC2)[C@H](C)[C@@H](O[C@@H]2O[C@H](C)C[C@H](N(C)C)[C@H]2O)[C@](C)(OC)C[C@@H](C)C(=O)[C@H](C)[C@H]2N(CC3CN(Cc4nc5ccccc5[nH]4)C3)C(=O)O[C@]12C`
**Result** <0.06 µg/mL

**Query** Return reported MIC S. pneumo. 1175; argument: CCC1OC(=O)C(C)C(=O)C(C)C(OC2OC(C)CC(N(C)C)C2O)C(C)(OC)CC(C)C(=O)C(C)C2N(C3CN(S(=O)(=O)c4cnn(-c5ccccn5)c4)C3)C(=O)OC12C (stereo not shown)
**Result** <0.06 µg/mL

Cited source: patent US7462600B2
